# procedure_details: Inhibition of p110alpha E545K mutant/p85alpha (unknown origin) using PIP2:3PS lipid kinase as substrate in presence of ATP measured by ADP-Glo lipid kinase assay
# Design: species or system Homo sapiens
measured_quantity: Ki

Data request, read-out Ki, for `COc1ncc2cc1NS(=O)(=O)c1cccc(c1)C(=O)NCc1cncc(c1)-c1cnc3ccc-2cn13`
0.14 nM

---

# target_or_system: Serine/threonine-protein kinase mTOR (Homo sapiens, UniProt P42345)
# procedure_details: Inhibition of recombinant human GST tagged mTOR (1360 to 2549 residues) expressed in baculovirus expression system measured by LanthaScreen assay
We label by threshold. Values of IC50 strictly beneath 200 nM are condition met. Values of 200 nM and up are condition not met.

Examples from the recorded data:
record_smiles	target_or_system	assigned_label
COc1ncc2cc1NS(=O)(=O)c1cccc(c1)C(=O)NCc1ccc(F)c(c1)-c1ccnc3ccc-2cc13	Serine/threonine-protein kinase mTOR (Homo sapiens, UniProt P42345)	condition not met
COc1ncc2cc1NS(=O)(=O)c1cccc(c1)C(=O)N1CCc3ccc(cc3C1)-c1ccnc3ccc-2cc13	Serine/threonine-protein kinase mTOR (Homo sapiens, UniProt P42345)	condition not met
COc1ncc2cc1NS(=O)(=O)c1cccc(c1)C(=O)NCCn1cc(cn1)-c1ccnc3ccc-2cc13	Serine/threonine-protein kinase mTOR (Homo sapiens, UniProt P42345)	condition not met
COc1ncc2cc1NS(=O)(=O)c1cccc(c1)C(=O)NCc1cncc(c1)-c1cnc3ccc-2nn13	Serine/threonine-protein kinase mTOR (Homo sapiens, UniProt P42345)	condition met

Is 200 nM strictly greater than the compound's reported IC50? compound: `COc1ncc2cc1NS(=O)(=O)c1cccc(c1)C(=O)NCc1cncc(c1)-c1ccnc3ccc-2nc13`
condition met

Is 200 nM strictly greater than the compound's reported IC50? compound: `COc1ncc2cc1NS(=O)(=O)c1cccc(c1)C(=O)NCc1cncc(c1)-c1cnn3ccc-2nc13`
condition met

Is 200 nM strictly greater than the compound's reported IC50? compound: `COc1ncc2cc1NS(=O)(=O)c1cccc(c1)C(=O)NCCn1cc(cn1)-c1cnc3ccc-2cn13`
condition not met

Is 200 nM strictly greater than the compound's reported IC50? compound: `COc1ncc2cc1NS(=O)(=O)c1cccc(c1)C(=O)NCCn1cc(cn1)-c1cnc3ccc-2nn13`
condition met
